molecular target: Multidrug efflux pump subunit AcrB (Escherichia coli (strain K12)) (UniProt P31224); assay: Inhibition of AcrB in multidrug-resistant Escherichia coli BW25113 assessed as potentiation of erythromycin-induced antibacterial activity by measuring erythromycin MIC at 16 ug/ml by checkerboard titration method (reference value: 64 ug/ml); settings: dose 16.0 µg/ml
Entries and their MIC
Observed property: MIC (µg/mL)

# Molecule, Value reported
rows = [
    ("CC1(C)CCc2c(C(=O)N3CCOCC3)cc3c(OCc4ccc(C(F)(F)F)cc4)cccc3c2O1", 64),
    ("COc1cccc(COc2cccc3c4c(c(-c5nnco5)cc23)CCC(C)(C)O4)c1", 64),
    ("CC1(C)CCc2c(-c3nnco3)cc3c(OCc4ccc(F)cc4)cccc3c2O1", 64),
    ("COc1cccc(COc2cccc3c4c(c(C(=O)N5CCOCC5)cc23)CCC(C)(C)O4)c1", 64),
    ("CC1(C)CCc2c(C(=O)O)cc3c(OCc4ccccc4)cccc3c2O1", 64),
    ("CC1(C)CCc2c(-c3nnco3)cc3c(OCc4ccc([N+](=O)[O-])cc4)cccc3c2O1", 64),
    ("CC1(C)CCc2c(Cn3cnnn3)cc3c(OCc4ccc(OC(F)(F)F)cc4)cccc3c2O1", 64),
    ("CC1(C)CCc2c(-c3nnco3)cc3c(OCc4ccc(C#N)cc4)cccc3c2O1", 64),
    ("COc1cccc(COc2cccc3c4c(c(C(=O)O)cc23)CCC(C)(C)O4)c1", 64),
    ("CC(C)NCCOc1ccc2c(c1)OC(C)(C)CC2=O", 64),
    ("Cc1ccccc1COc1cccc2c3c(c(-c4nnco4)cc12)CCC(C)(C)O3", 64),
    ("CC1CN(C(=O)c2cc3c(OCc4c(Cl)cccc4Cl)cccc3c3c2CCC(C)(C)O3)CC(C)O1 (stereo not given)", 64),
    ("CC1CN(C(=O)c2cc3c(OCc4ccc(Br)cc4)cccc3c3c2CCC(C)(C)O3)CC(C)O1 (stereo not given)", 64),
    ("C=CC(=O)Nc1ccc(COc2cccc3c4c(c(C(=O)N5CCOCC5)cc23)CCC(C)(C)O4)cc1", 16),
    ("C=CC(=O)Nc1ccc(COc2cccc3c4c(c(Cn5cnnn5)cc23)CCC(C)(C)O4)cc1", 64),
    ("CNC(=O)c1ccc(COc2cccc3c4c(c(Cn5cnnn5)cc23)CCC(C)(C)O4)cc1", 64),
    ("CC1(C)CC(=O)c2ccc(OCCNC3CCCC3)cc2O1", 64),
    ("CC1(C)CC(=O)c2ccc(OCC(=O)Nc3ccc(C#N)c(C(F)(F)F)c3)cc2O1", 64),
    ("C[C@@H](Cc1ccc(O)c(O)c1)[C@@H](C)Cc1ccc(O)c(O)c1", 64),
    ("CC1(C)CCc2c(Cn3cnnn3)cc3c(OCc4ccc([N+](=O)[O-])cc4)cccc3c2O1", 64),
]

====

Target: Multidrug efflux pump subunit AcrB (Escherichia coli (strain K12)) (UniProt P31224)
Sequence (whole entry): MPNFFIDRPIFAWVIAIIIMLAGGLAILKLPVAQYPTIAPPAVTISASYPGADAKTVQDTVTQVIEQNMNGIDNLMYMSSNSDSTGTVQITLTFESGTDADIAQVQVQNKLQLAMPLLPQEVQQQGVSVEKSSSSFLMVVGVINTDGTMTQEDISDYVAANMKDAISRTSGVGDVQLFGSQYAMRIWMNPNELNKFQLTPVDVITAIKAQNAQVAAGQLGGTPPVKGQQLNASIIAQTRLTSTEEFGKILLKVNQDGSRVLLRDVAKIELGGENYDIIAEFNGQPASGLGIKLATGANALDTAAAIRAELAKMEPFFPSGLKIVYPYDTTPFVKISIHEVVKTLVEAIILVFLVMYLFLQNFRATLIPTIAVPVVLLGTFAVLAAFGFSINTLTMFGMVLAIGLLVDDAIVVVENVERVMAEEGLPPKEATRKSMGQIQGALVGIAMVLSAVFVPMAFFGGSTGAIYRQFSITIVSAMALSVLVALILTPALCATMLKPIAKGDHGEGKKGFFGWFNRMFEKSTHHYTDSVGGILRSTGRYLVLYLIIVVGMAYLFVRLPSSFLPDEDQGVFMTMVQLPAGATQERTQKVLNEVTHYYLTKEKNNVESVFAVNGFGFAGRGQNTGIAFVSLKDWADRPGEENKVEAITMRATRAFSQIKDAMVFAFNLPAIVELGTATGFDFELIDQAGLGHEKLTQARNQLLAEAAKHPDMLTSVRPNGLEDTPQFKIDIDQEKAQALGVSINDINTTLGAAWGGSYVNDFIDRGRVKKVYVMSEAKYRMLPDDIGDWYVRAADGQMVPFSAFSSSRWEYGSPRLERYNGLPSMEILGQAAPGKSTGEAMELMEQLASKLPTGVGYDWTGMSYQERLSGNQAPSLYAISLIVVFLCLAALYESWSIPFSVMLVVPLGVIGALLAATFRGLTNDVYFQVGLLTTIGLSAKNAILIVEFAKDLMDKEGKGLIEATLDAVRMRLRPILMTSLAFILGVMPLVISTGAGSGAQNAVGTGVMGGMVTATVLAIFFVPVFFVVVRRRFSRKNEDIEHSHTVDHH
Assay: Inhibition of AcrB in multidrug-resistant Escherichia coli BW25113 assessed as potentiation of chloramphenicol-induced antibacterial activity by measuring chloramphenicol MIC at 64 ug/ml by checkerboard titration method (reference value: 8 ug/ml)
Settings: dose 64.0 µg/ml

# Compound, MIC [µg/mL]
data = [
    ("CC1CN(C(=O)c2cc3c(OCc4c(Cl)cccc4Cl)cccc3c3c2CCC(C)(C)O3)CC(C)O1 (stereo not drawn)", 8),
    ("CC(C)NCCOc1ccc2c(c1)OC(C)(C)CC2=O", 8),
    ("CC1(C)CC(=O)c2ccc(OCCNC3CCCC3)cc2O1", 8),
    ("Cc1ccc(COc2cccc3c4c(c(-c5nnco5)cc23)CCC(C)(C)O4)cc1", 8),
    ("CC1(C)CCc2c(Cn3cnnn3)cc3c(OCc4ccccc4)cccc3c2O1", 4),
    ("CC1(C)CCc2c(-c3nnco3)cc3c(OCc4ccccc4)cccc3c2O1", 4),
    ("CC1(C)CCc2c(Cn3cnnn3)cc3c(OCc4ccc([N+](=O)[O-])cc4)cccc3c2O1", 8),
    ("CC1CN(C(=O)c2cc3c(OCc4ccc(Br)cc4)cccc3c3c2CCC(C)(C)O3)CC(C)O1 (stereo not drawn)", 8),
    ("CC1(C)CCc2c(C(=O)N3CCOCC3)cc3c(OCc4ccc(C(F)(F)F)cc4)cccc3c2O1", 8),
    ("C[C@@H](Cc1ccc(O)c(O)c1)[C@@H](C)Cc1ccc(O)c(O)c1", 8),
    ("CC1(C)CCc2c(C(=O)N3CCOCC3)cc3c(OCc4ccccc4)cccc3c2O1", 4),
    ("CC1(C)CCc2c(-c3nnco3)cc3c(OCc4ccc([N+](=O)[O-])cc4)cccc3c2O1", 8),
    ("COc1cccc(COc2cccc3c4c(c(-c5nnco5)cc23)CCC(C)(C)O4)c1", 8),
    ("C=CC(=O)Nc1ccc(COc2cccc3c4c(c(C(=O)N5CCOCC5)cc23)CCC(C)(C)O4)cc1", 4),
    ("CC1(C)CCc2c(C(=O)O)cc3c(OCc4ccccc4)cccc3c2O1", 4),
    ("COc1cccc(COc2cccc3c4c(c(C(=O)O)cc23)CCC(C)(C)O4)c1", 4),
    ("CC1(C)CCc2c(-c3nnco3)cc3c(OCc4ccc(C#N)cc4)cccc3c2O1", 4),
    ("CNC(=O)c1ccc(COc2cccc3c4c(c(Cn5cnnn5)cc23)CCC(C)(C)O4)cc1", 4),
]

====

Biological target: Multidrug efflux pump subunit AcrB (Escherichia coli (strain K12)) (UniProt P31224)
Sequence (whole entry): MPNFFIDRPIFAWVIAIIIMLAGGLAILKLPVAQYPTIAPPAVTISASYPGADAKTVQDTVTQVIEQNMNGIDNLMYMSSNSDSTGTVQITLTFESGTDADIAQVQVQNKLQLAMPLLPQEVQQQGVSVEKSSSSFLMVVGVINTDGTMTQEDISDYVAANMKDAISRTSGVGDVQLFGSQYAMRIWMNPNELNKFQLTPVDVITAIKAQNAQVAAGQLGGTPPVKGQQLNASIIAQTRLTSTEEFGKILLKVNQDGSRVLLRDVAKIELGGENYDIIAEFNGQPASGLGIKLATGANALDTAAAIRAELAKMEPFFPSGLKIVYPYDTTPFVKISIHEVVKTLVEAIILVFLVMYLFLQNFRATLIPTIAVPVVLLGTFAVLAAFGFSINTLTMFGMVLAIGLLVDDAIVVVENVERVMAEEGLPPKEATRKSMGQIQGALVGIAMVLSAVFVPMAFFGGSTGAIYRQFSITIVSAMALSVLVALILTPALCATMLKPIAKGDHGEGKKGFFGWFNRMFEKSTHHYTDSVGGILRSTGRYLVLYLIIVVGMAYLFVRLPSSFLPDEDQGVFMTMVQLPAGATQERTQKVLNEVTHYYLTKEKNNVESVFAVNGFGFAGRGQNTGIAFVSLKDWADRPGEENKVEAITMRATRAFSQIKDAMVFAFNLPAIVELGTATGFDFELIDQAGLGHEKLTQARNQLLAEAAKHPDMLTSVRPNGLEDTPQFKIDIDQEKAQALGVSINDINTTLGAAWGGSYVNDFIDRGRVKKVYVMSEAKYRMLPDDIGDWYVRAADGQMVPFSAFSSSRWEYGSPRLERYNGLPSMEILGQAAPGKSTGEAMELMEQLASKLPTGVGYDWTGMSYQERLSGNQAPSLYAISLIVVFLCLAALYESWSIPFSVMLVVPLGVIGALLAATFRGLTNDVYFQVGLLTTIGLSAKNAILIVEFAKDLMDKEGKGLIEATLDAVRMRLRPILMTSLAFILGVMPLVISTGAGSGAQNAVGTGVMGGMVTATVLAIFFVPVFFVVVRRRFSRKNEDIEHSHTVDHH
Test: Inhibition of AcrB in multidrug-resistant Escherichia coli BW25113 assessed as potentiation of chloramphenicol-induced antibacterial activity by measuring chloramphenicol MIC at 64 ug/ml by checkerboard titration method (reference value: 8 ug/ml)
Settings: dose 64.0 µg/ml
Property: MIC; scope: individual compounds
Observed property: MIC (µg/mL)

# Smiles representation, Observed property, Readout unit, Value reported
rows = [
    ("COc1cccc(COc2cccc3c4c(c(C(=O)N5CCOCC5)cc23)CCC(C)(C)O4)c1", "MIC", "µg/mL", 4),
    ("CC1(C)CCc2c(Cn3cnnn3)cc3c(OCc4ccc(OC(F)(F)F)cc4)cccc3c2O1", "MIC", "µg/mL", 8),
    ("C=CC(=O)Nc1ccc(COc2cccc3c4c(c(Cn5cnnn5)cc23)CCC(C)(C)O4)cc1", "MIC", "µg/mL", 4),
    ("CC1(C)CC(=O)c2ccc(OCC(=O)Nc3ccc(C#N)c(C(F)(F)F)c3)cc2O1", "MIC", "µg/mL", 4),
    ("Cc1ccccc1COc1cccc2c3c(c(-c4nnco4)cc12)CCC(C)(C)O3", "MIC", "µg/mL", 8),
]
